Hi there, I'd appreciate the recorded IC50 for every entry that follows.
test system: H1975 EGFR-L858R/T790M; assay: Cell proliferation inhibition experiment (CCK-8), H1975; type: cell-based; conditions: Homo sapiens, NCI-H1975, 72 h

# query: IC50 | item C=CC(=O)N1CC[C@H](Nc2nc(Nc3ccc(N4CCN(C)CC4)cc3)nc3[nH]cc(C(=O)c4ccccc4F)c23)C1 | system: H1975 EGFR-L858R/T790M < 0.1 µM

# query: IC50 | item Cn1cc(Nc2nc(N[C@H]3CC[C@@H](CO)CC3)c3c(C(=O)c4ccc(F)cc4)c[nH]c3n2)cn1 | system: H1975 EGFR-L858R/T790M < 0.1 µM

# query: IC50 | item CN1CCN(c2ccc(Nc3nc(NC4CCCCC4O)c4c(C(=O)c5ccc(F)cc5)c[nH]c4n3)cc2)CC1 (stereo not shown) | system: H1975 EGFR-L858R/T790M 0.1 to 1 µM

# query: IC50 | item COc1nn(C)cc1Nc1nc(N[C@H]2CC[C@@H](CO)CC2)c2c(C(=O)c3ccc(F)cc3)c[nH]c2n1 | system: H1975 EGFR-L858R/T790M 0.1 to 1 µM

# query: IC50 | item CN1CCN(c2ccc(Nc3nc(N[C@H]4CC[C@H](CO)CC4)c4c(C(=O)c5ccc(F)cc5)c[nH]c4n3)cc2)CC1 | system: H1975 EGFR-L858R/T790M 0.1 to 1 µM

# query: IC50 | item CN1CCN(c2ccc(Nc3nc(N[C@H]4CC[C@@H](CO)CC4)c4c(C(=O)c5ccc(F)cc5)c[nH]c4n3)cc2F)CC1 | system: H1975 EGFR-L858R/T790M 0.1 to 1 µM

# query: IC50 | item CN(C)CCOc1ccc(Nc2nc(N[C@H]3CC[C@@H](CO)CC3)c3c(C(=O)c4ccc(F)cc4)c[nH]c3n2)cc1 | system: H1975 EGFR-L858R/T790M 0.1 to 1 µM

---

target: EGFR D770-N771 ins NPG kinase (Homo sapiens (Human), UniProt P00533, INS770NPG); test: In-vitro enzyme experiment 1 (HTRF kinase assay), D770-N771 ins NPG kinase
Sequence (P00533 other isoform, or with tags, fused parts or gaps del 1-668/ins NPG behind 770 limits assumed): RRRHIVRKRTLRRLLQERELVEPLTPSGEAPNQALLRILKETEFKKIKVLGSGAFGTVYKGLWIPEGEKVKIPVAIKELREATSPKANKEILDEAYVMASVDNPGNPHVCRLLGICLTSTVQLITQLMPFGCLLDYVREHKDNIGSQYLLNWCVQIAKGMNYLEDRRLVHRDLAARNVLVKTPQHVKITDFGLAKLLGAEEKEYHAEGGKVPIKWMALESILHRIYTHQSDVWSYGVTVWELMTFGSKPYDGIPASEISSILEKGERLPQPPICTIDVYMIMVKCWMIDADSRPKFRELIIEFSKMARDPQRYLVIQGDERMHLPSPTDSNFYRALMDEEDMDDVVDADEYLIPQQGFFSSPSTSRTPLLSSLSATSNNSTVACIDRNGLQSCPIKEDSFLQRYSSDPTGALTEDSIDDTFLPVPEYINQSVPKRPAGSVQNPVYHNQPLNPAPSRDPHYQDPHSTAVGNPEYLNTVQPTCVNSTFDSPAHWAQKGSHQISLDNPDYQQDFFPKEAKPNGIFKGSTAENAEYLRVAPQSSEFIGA
experimental-endpoint: pIC50
A value of pIC50 is the negative decimal logarithm of a concentration given in moles per litre.

Given the compound Cn1cc(Nc2nc(N[C@H]3CC[C@@H](CO)CC3)c3c(C(=O)c4ccc(F)cc4)c[nH]c3n2)cn1 , what is its reported pIC50? 8.39

Given the compound CCN1CCN(c2ccc(Nc3nc(N[C@H]4CC[C@@H](CO)CC4)c4c(C(=O)c5ccc(F)cc5)c[nH]c4n3)cc2)CC1 , what is its reported pIC50? 8.57

Given the compound CN1CCC(n2cc(Nc3nc(N[C@H]4CC[C@@H](CO)CC4)c4c(C(=O)c5ccc(F)cc5)c[nH]c4n3)cn2)CC1 , what is its reported pIC50? 8.61

Given the compound C=CC(=O)N1CC[C@@H](Nc2nc(Nc3ccc(N4CCN(C)CC4)cc3)nc3[nH]cc(C(=O)c4ccc(F)cc4)c23)C1 , what is its reported pIC50? 8.45

Given the compound CN1CCN(c2ccc(Nc3nc(N[C@H]4CC[C@@H](CO)CC4)c4c(C(=O)c5ccc(F)cc5)c[nH]c4n3)cc2)CC1 , what is its reported pIC50? 8.55

Given the compound CN1CCN(c2ccc(Nc3nc(NC4CCN(S(C)(=O)=O)CC4)c4c(C(=O)c5ccc(F)cc5)c[nH]c4n3)cc2)CC1 , what is its reported pIC50? 7.62

Given the compound CN1CCN(c2ccc(Nc3nc(N[C@H]4CC[C@H](CO)CC4)c4c(C(=O)c5ccc(F)cc5)c[nH]c4n3)cc2)CC1 , what is its reported pIC50? 8.35

---

Hi there, I'd appreciate the recorded log10(IC50) for every entry that follows.
target: EGFR (D770-N771 ins NPG T790M) kinase (Homo sapiens (Human), UniProt P00533, INS770NPG/T790M); assay: In-vitro enzyme experiment 1 (HTRF kinase assay), EGFR D770-N771 ins NPG T790M
Sequence (P00533 other isoform, or with tags, fused parts or gaps T790M/del 1-668/ins NPG behind 770 limits assumed): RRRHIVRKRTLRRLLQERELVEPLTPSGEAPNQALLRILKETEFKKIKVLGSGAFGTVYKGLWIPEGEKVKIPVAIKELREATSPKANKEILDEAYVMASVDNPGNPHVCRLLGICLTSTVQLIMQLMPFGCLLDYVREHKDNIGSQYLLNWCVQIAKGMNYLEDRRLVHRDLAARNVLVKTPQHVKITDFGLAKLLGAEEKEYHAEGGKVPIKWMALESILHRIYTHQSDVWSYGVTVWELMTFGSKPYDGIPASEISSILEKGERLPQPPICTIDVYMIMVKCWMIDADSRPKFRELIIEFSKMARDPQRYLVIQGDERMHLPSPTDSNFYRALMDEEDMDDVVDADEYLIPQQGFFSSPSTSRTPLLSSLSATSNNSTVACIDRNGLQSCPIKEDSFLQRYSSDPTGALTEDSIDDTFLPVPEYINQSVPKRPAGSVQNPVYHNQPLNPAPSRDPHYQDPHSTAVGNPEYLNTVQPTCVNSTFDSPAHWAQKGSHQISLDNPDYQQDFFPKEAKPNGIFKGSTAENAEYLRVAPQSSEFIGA
Scale: decimal log of IC50, IC50 in nM.

Given the molecule CN1CCN(c2ccc(Nc3nc(NC45CC6CC(C4)C(O)C(C6)C5)c4c(C(=O)c5ccc(F)cc5)c[nH]c4n3)cc2)CC1 (centres unmarked) , what is its reported log10(IC50)? 0.97

Given the molecule CN1CCN(c2ccc(Nc3nc(NC4CCN(S(C)(=O)=O)CC4)c4c(C(=O)c5ccc(F)cc5)c[nH]c4n3)cc2)CC1 , what is its reported log10(IC50)? 1.97

Given the molecule C=CC(=O)N1CC[C@@H](Nc2nc(Nc3cnn(C)c3)nc3[nH]cc(C(=O)c4ccc(F)cc4)c23)C1 , what is its reported log10(IC50)? 0.86

Given the molecule C=CC(=O)N1CC[C@@H](Nc2nc(Nc3ccc(N4CCN(C)CC4)cc3)nc3[nH]cc(C(=O)c4ccc(F)cc4)c23)C1 , what is its reported log10(IC50)? 0.80

Given the molecule CN1CCC(n2cc(Nc3nc(N[C@H]4CC[C@@H](CO)CC4)c4c(C(=O)c5ccc(F)cc5)c[nH]c4n3)cn2)CC1 , what is its reported log10(IC50)? 0.91

Given the molecule Cn1cc(Nc2nc(N[C@H]3CC[C@@H](CO)CC3)c3c(C(=O)c4ccc(F)cc4)c[nH]c3n2)cn1 , what is its reported log10(IC50)? 1.26

Given the molecule CN1CCN(c2ccc(Nc3nc(N[C@H]4CC[C@@H](CO)CC4)c4c(C(=O)c5ccc(F)cc5)c[nH]c4n3)cc2)CC1 , what is its reported log10(IC50)? 0.94

Given the molecule CCN1CCN(c2ccc(Nc3nc(N[C@H]4CC[C@@H](CO)CC4)c4c(C(=O)c5ccc(F)cc5)c[nH]c4n3)cc2)CC1 , what is its reported log10(IC50)? 1.06

---

tested on: H1975 EGFR-L858R/T790M; assay: Cell proliferation inhibition experiment (CCK-8), H1975; assay type: cell-based; conditions: Homo sapiens, NCI-H1975, 72 h
Hi there, I'd appreciate the recorded IC50 for every entry that follows.

Given the compound CCN1CCN(c2ccc(Nc3nc(N[C@H]4CC[C@@H](CO)CC4)c4c(C(=O)c5ccc(F)cc5)c[nH]c4n3)cc2)CC1 [Example 104] , what is its reported IC50? < 0.1 µM

Given the compound CN1CCN(c2ccc(Nc3nc(N[C@@H]4C=C[C@H](CO)C4)c4c(C(=O)c5ccc(F)cc5)c[nH]c4n3)cc2)CC1 [Example 19] , what is its reported IC50? 0.1 to 1 µM

Given the compound O=C(c1ccc(F)cc1)c1c[nH]c2nc(Nc3ccc(N4CCOCC4)cc3)nc(N[C@H]3CC[C@H](CO)CC3)c12 [Example 79] , what is its reported IC50? 0.1 to 1 µM

---

Hi there, I'd appreciate the recorded IC50 for every entry that follows.
System: H1975 EGFR-L858R/T790M
Assay: Cell proliferation inhibition experiment (CCK-8), H1975
Format: cell-based
Conditions: Homo sapiens, NCI-H1975, 72 h
From the text: Inhibition rate %=[(A0−AS)/(A0−AC)]×100%.

# query: IC50 | item CN1CCN(c2ccc(Nc3nc(N[C@H]4C=C[C@@H](CO)C4)c4c(C(=O)c5ccc(F)cc5)c[nH]c4n3)cc2)CC1 [Example 20] | system: H1975 EGFR-L858R/T790M 0.1 to 1 µM

# query: IC50 | item CN1CCN(c2ccc(Nc3nc(N[C@H]4CC[C@@H](N)CC4)c4c(C(=O)c5ccc(F)cc5)c[nH]c4n3)cc2)CC1 [Example 86] | system: H1975 EGFR-L858R/T790M 0.1 to 1 µM

# query: IC50 | item CN1CCN(c2ccc(Nc3nc(N[C@H]4CC[C@@H](O)CC4)c4c(C(=O)c5ccc(F)cc5)c[nH]c4n3)cc2)CC1 [Example 55] | system: H1975 EGFR-L858R/T790M 0.1 to 1 µM

---

tested on: PC-9 EGFR-Del19; test: Cell proliferation inhibition experiment (CCK-8), PC-9; type: cell-based; conditions: Homo sapiens, 72 h
Hi there, I'd appreciate the recorded IC50 for every entry that follows.

Given the molecule CN1CCC(n2cc(Nc3nc(N[C@H]4CC[C@@H](CO)CC4)c4c(C(=O)c5ccc(F)cc5)c[nH]c4n3)cn2)CC1 , what is its reported IC50? 0.1 to 1 µM

Given the molecule O=C(c1cccc(F)c1)c1c[nH]c2nc(Nc3ccc(N4CCOCC4)cc3)nc(N[C@H]3CC[C@H](CO)CC3)c12 , what is its reported IC50? 0.1 to 1 µM

Given the molecule CN1CCN(c2ccc(Nc3nc(N[C@H]4C=C[C@@H](CO)C4)c4c(C(=O)c5ccc(F)cc5)c[nH]c4n3)cc2)CC1 , what is its reported IC50? < 0.1 µM
